# target.or.system: SIK2 (Homo sapiens, UniProt Q9H0K1)
# Sequence (Q9H0K1 whole entry, species assumed): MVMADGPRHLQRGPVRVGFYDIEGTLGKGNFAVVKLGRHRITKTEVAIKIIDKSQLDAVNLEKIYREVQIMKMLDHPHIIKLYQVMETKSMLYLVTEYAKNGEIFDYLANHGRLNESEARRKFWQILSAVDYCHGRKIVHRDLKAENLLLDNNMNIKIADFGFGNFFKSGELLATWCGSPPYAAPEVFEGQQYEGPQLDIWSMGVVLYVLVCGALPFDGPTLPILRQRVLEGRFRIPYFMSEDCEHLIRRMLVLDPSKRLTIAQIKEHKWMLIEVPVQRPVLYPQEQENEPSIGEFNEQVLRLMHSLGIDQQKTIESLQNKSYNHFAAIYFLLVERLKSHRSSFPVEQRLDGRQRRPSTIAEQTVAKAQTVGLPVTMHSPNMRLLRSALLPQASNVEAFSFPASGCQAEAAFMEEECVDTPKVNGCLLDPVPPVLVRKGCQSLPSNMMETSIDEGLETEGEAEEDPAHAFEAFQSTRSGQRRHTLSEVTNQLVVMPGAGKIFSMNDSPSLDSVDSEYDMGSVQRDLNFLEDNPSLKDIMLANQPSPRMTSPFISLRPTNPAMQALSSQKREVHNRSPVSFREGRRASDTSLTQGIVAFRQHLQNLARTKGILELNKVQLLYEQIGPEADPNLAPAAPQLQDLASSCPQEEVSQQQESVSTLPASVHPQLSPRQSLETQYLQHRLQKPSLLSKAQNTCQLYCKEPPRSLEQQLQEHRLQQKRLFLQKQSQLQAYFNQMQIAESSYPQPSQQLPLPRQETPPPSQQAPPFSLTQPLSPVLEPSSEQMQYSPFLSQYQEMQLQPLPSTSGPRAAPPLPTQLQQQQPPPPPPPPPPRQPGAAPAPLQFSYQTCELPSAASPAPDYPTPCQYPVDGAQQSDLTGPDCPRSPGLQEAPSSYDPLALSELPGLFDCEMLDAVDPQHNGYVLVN
# assay.name: SIK2 Enzymatic Assay High Version 2 (High ATP)
# Type: biochemical
# test.context: enzyme 6 nM, 6 mM ATP and 400 μM HDAC5tide (each 2× final concentration); 30 minutes pre-incubation, 2 hours; ADP-Glo Max luminescence; read-out: SIK2 high ATP IC50 (μM) (Test Example 2)
# Experimental: All steps were performed at room temperature. Compounds were pre-plated onto an assay plate using an Echo acoustic dispenser (Labcyte, E550 or E555) at 80 nL per well. […] The plate is then read on the Pherastar (BMG Labtech) using a luminescence read. […]
observed.property: IC50 (µM)

Examples with answers:
{"columns": ["compound", "observed.property", "val"],
 "data": [
  ["Cc1cc(-c2ccn3nc(Nc4cc(C)nc(C)n4)cc3c2)c(OC[C@H]2CCO[C@H]2C)cn1 (single isomer, unassigned)", "IC50", 0.0175],
  ["Cc1cc(-c2ccn3nc(Nc4cc(C)nc(C)n4)cc3c2)c(OC[C@@H]2C[C@H](O)CO2)cn1", "IC50", 0.1],
  ["Cc1cc(-c2ccn3nc(Nc4cc(C)nc(C5CC5)n4)cc3c2)c(OCC(C)(C)O)cn1", "IC50", 0.00587],
  ["CC(C)(C#N)COc1cnc(OCC(F)(F)F)cc1-c1ccn2nc(NC(=O)C3CC3)cc2c1", "IC50", 0.0526],
  ["Cc1cc(-c2ccn3nc(Nc4nn(C)c5ncccc45)cc3c2)c(OCC(C)(C)O)cn1", "IC50", 0.0187]
]}

(P) Cc1cc(-c2ccn3nc(Nc4cc(C(=O)NC5CC5)cc(C)n4)cc3c2)c(OCC(C)(C)O)cn1
(Q) COc1cc(Nc2cc3cc(-c4cc(C)ncc4OCC(C)(C)C#N)ccn3n2)cc(OC)c1C(=O)NC1CC1
## Task # query: argmin of IC50 over P and Q Reply briefly: the label of your chosen item.
## Result Q

====

# target.or.system: SIK2 (Homo sapiens, UniProt Q9H0K1)
# assay.name: SIK2 Enzymatic Assay Version 1 (ADP Glo)
# Type: biochemical
# test.context: enzyme 0.6 nM, 160 μM ATP and 140 μM HDAC5tide (each 2× final concentration); 30 minutes pre-incubation, 4 hours; ADPGlo luminescence; read-out: SIK2 ADP Glo IC50 (μM) (Test Example 1)
observed.property: IC50 (µM)

Examples with answers:
{"columns": ["compound", "unit.annotation", "IC50"],
 "data": [
  ["CC(C)(C#N)COc1cnc(OC(F)F)cc1-c1ccn2nc(Nc3ccn4ncnc4c3)cc2c1", "µM", 0.00205],
  ["CN1CC[C@@H](Oc2cnc(C#N)cc2-c2ccn3nc(NC(=O)C4CC4)cc3c2)C(F)(F)C1", "µM", 0.0014],
  ["Cc1cc(-c2ccn3nc(NC(=O)C4CC4)cc3c2)c(OC[C@H]2C[C@@H](N)C2)cn1", "µM", 0.000617]
]}

(A) CC(=O)N1CCC(Oc2cnc(C#N)cc2-c2ccn3nc(NC(=O)C4CC4)cc3c2)C1 (single isomer, unassigned) [Example 57]
(B) Cc1cc(-c2ccn3nc(NC(=O)C4CC4)cc3c2)c(OC[C@@H]2CNC(C)(C)CO2)cn1
## Task Given A and B , report the one with the higher recorded IC50. Reply briefly: the label of your chosen item.
## Result A
(A: 0.0103 µM, B: 0.00059 µM)

(P) Cc1cc(-c2ccn3nc(Nc4ccc(C(=O)NC5CC5)c(F)c4)cc3c2)c(OCC(C)(C)O)cn1
(Q) N#Cc1cc(-c2ccn3nc(NC(=O)C4CC4)cc3c2)c(OC[C@H]2CCCNC2)cn1
(R) CNC1(COc2cnc(C)cc2-c2ccn3nc(NC(=O)C4CC4)cc3c2)CCC1
## Task In this exercise, place the 3 compounds in ascending sequence of their recorded IC50. Provide the labels, sequenced as the question asks.
## Result Q, R, P

(1) CN1CCC[C@H](COc2cnc(C#N)cc2-c2ccn3nc(NC(=O)C4CC4)cc3c2)C1
(2) N#Cc1cc(-c2ccn3nc(NC(=O)C4CC4)cc3c2)c(OC[C@@H]2CCN(C3CC3)C2)cn1
## Task Given 1 and 2 , report the one with the higher recorded IC50. Reply briefly: the label of your chosen item.
## Result 1

(a) N#Cc1cc(-c2ccn3nc(NC(=O)C4CC4)cc3c2)c(N2CCC(O)(C(F)(F)F)C2)cn1 (racemic)
(b) CN1CC[C@@H](COc2cnc(C#N)cc2-c2ccn3nc(NC(=O)C4CC4)cc3c2)C1
## Task # query: argmin of IC50 over a and b Reply briefly: the label of your chosen item.
## Result b
(b: 0.00226 µM, a: 0.118 µM)
